# AUC of dose-response viability curve per entry
Tested on: ACHN
Assay: AUC of dose-response viability curve, drug alone (arbitrary (AUC of normalised viability)); higher = less growth inhibition
Conditions: treatment: drug alone; 5 days
// keep it numeric: no unit symbol after the value

INSERT INTO measurements (chemical_smiles, recorded_result) VALUES
  ('CS(=O)(=O)N1CCN(Cc2cc3nc(-c4cccc5[nH]ncc45)nc(N4CCOCC4)c3s2)CC1', 2.41);

Input: Which AUC of dose-response viability curve value belongs to CN(C[C@@H]1COCCO1)S(=O)(=O)Nc1ccc2ccc3ncc(-c4cnn(C)c4)cc3c(=O)c2c1 ?
Output: 2.6

Input: # repeat for Cc1ccc(F)c(NC(=O)Nc2ccc(-c3cccc4[nH]nc(N)c34)cc2)c1
Output: 3.34

Input: Also Cc1cc(Nc2cc(N3CCN(C)CC3)nc(Sc3ccc(NC(=O)C4CC4)cc3)n2)n[nH]1 , if possible.
Output: 2.35

Input: Would you mind doing CCN1CCN(Cc2ccc(-c3cc4c(N[C@H](C)c5ccccc5)ncnc4[nH]3)cc2)CC1 as well?
Output: 2.1

Input: Try CN1CCN(c2nc(C3=C(c4c[nH]c5ccccc45)C(=O)NC3=O)c3ccccc3n2)CC1 next.
Output: 3.2

Input: Check COc1cc2ncnc(Nc3ccc(F)c(Cl)c3)c2cc1NC(=O)/C=C/CN1CCCCC1 too.
Output: 1.4

###

Tested on: ACHN
Assay: minimum viability across doses, drug + dasatinib, relative to DMSO (fraction); higher = less growth inhibition
Conditions: treatment: drug + dasatinib (fixed dose, not stated); 5 days
Mark T only when minimum viability across doses stays strictly below 0.01. Values equal to the cut-off are F.

INSERT INTO assay_data (molecule, label) VALUES
  ('CCc1cnn2c(NCc3ccc[n+]([O-])c3)cc(N3CCCC[C@H]3CCO)nc12 + Cc1nc(Nc2ncc(C(=O)Nc3c(C)cccc3Cl)s2)cc(N2CCN(CCO)CC2)n1', 'T'),
  ('C=CC(=O)Nc1cccc(Oc2nc(Nc3ccc(N4CCN(C)CC4)cc3OC)ncc2Cl)c1 [WZ4002] + Cc1nc(Nc2ncc(C(=O)Nc3c(C)cccc3Cl)s2)cc(N2CCN(CCO)CC2)n1', 'F'),
  ('NC(=O)Nc1sc(-c2ccc(F)cc2)cc1C(N)=O [TPCA-1] + Cc1nc(Nc2ncc(C(=O)Nc3c(C)cccc3Cl)s2)cc(N2CCN(CCO)CC2)n1', 'F');

Input: I wonder whether COc1ccc2c(c1OC)N=C(NC(=O)c1cccnc1)N1CCN=C21 [PIK-90] + Cc1nc(Nc2ncc(C(=O)Nc3c(C)cccc3Cl)s2)cc(N2CCN(CCO)CC2)n1 has minimum viability across doses below 0.01. Can you tell?
Output: F

Input: // next record Oc1cccc(-c2nc(N3CCOCC3)c3oc4ncccc4c3n2)c1 [PI-103] + Cc1nc(Nc2ncc(C(=O)Nc3c(C)cccc3Cl)s2)cc(N2CCN(CCO)CC2)n1
Output: F

###

Test system: TK-10
Test: minimum viability across doses, drug + dasatinib, relative to DMSO (fraction); higher = less growth inhibition
Settings: treatment: drug + dasatinib (fixed dose, not stated); 5 days
metric: minimum viability across doses
Format: numeric value only, no unit, no commentary.

INSERT INTO assay_data (compound, recorded_result) VALUES
  ('COc1cc2c(Oc3ccc(NC(=O)C4(C(=O)Nc5ccc(F)cc5)CC4)cc3F)ccnc2cc1OCCCN1CCOCC1 + Cc1nc(Nc2ncc(C(=O)Nc3c(C)cccc3Cl)s2)cc(N2CCN(CCO)CC2)n1', 0.00508);

Input: Recorded minimum viability across doses of Cn1cnc(N)c2ncnc1-2 [3-Methyladenine] + Cc1nc(Nc2ncc(C(=O)Nc3c(C)cccc3Cl)s2)cc(N2CCN(CCO)CC2)n1 , please.
Output: 0.691

Input: How about this compound: CCCCOc1c(C(=O)c2c(F)cc(C)cc2F)cnc2[nH]ncc12 + Cc1nc(Nc2ncc(C(=O)Nc3c(C)cccc3Cl)s2)cc(N2CCN(CCO)CC2)n1
Output: 0.377

###

System: UO-31
Assay: AUC of dose-response viability curve, drug + dasatinib, normalised to DMSO (arbitrary (AUC of normalised viability)); higher = less growth inhibition
Conditions: treatment: drug + dasatinib (fixed dose, not stated); 5 days
So basically, if AUC of dose-response viability curve comes in under 2 it's condition met, and if it's 2 or more it's condition not met.

Below, 4 compounds whose answers are already recorded.
INSERT INTO measurements (compound, label) VALUES
  ('Cn1c(=O)n(-c2ccc(C(C)(C)C#N)cc2)c2c3cc(-c4cnc5ccccc5c4)ccc3ncc21 [BEZ235 (NVP-BEZ235)] + Cc1nc(Nc2ncc(C(=O)Nc3c(C)cccc3Cl)s2)cc(N2CCN(CCO)CC2)n1', 'condition met'),
  ('COc1ccc(S(=O)(=O)N(C(C)=O)c2ccccc2/C=C/c2cc[n+]([O-])cc2)cc1 [HMN-214] + Cc1nc(Nc2ncc(C(=O)Nc3c(C)cccc3Cl)s2)cc(N2CCN(CCO)CC2)n1', 'condition not met'),
  ('CC(C)(C)c1cnc(CSc2cnc(NC(=O)C3CCNCC3)s2)o1 + Cc1nc(Nc2ncc(C(=O)Nc3c(C)cccc3Cl)s2)cc(N2CCN(CCO)CC2)n1', 'condition not met'),
  ('C=CCc1cccc(/C=N/NC(=O)CN2CCN(Cc3ccccc3)CC2)c1O [PAC-1] + Cc1nc(Nc2ncc(C(=O)Nc3c(C)cccc3Cl)s2)cc(N2CCN(CCO)CC2)n1', 'condition not met');

Continue with the compound presented below.
Input: Identify whether the compound O=C1CCC(N2C(=O)c3ccccc3C2=O)C(=O)N1 (stereo not given) [Thalidomide] + Cc1nc(Nc2ncc(C(=O)Nc3c(C)cccc3Cl)s2)cc(N2CCN(CCO)CC2)n1 records AUC of dose-response viability curve below 2.
Output: condition not met

###

Test system: TK-10
Assay: GI50, drug alone; higher = less potent
Conditions: treatment: drug alone; 5 days
Class (required): determined from GI50, drug alone; valid ranges are low class: < 0.9 µM; middle class: ≥ 0.9 µM and < 5 µM; high class: ≥ 5 µM

INSERT INTO measurements (compound, label) VALUES
  ('CN(C)CCOc1ccc(-c2nc(-c3ccncc3)c(-c3ccc4c(c3)CC/C4=N/O)[nH]2)cc1', 'high class'),
  ('O=C1C(=O)N(Cc2ccc(Cl)c(Cl)c2)c2ccccc21 [Apoptosis Activator 2]', 'high class'),
  ('CNC(=O)c1cccc(-c2ccc3c(N4CCOC[C@@H]4C)nc(N4CCOC[C@@H]4C)nc3n2)c1 [AZD2014]', 'low class'),
  ('CC(=O)Nc1nc(C)c(-c2ccc(Cl)c(S(=O)(=O)NCCO)c2)s1 [PIK-93]', 'high class'),
  ('CN1CCN(c2cccc(Nc3nc4c(-c5ccc(S(C)(=O)=O)cc5)cccn4n3)c2)CC1', 'middle class');

Input: Bin this entry: Cn1c(=O)n(-c2ccc(C(C)(C)C#N)cc2)c2c3cc(-c4cnc5ccccc5c4)ccc3ncc21 [BEZ235 (NVP-BEZ235)]
Output: low class

Input: Try this compound too: COc1cc(CCc2cc(NC(=O)c3ccc(N4C[C@@H](C)N[C@@H](C)C4)cc3)n[nH]2)cc(OC)c1 [AZD4547]
Output: high class

Input: Follow-up entry: NC1(Cc2ccc(Cl)cc2)CCN(c2ncnc3[nH]ccc23)CC1
Output: middle class

Input: What do we get for CC(C)n1nc(-c2cc3cc(O)ccc3[nH]2)c2c(N)ncnc21 [PP242] ?
Output: low class

Input: What do we get for CCc1cc2c(cc1N1CCC(N3CCOCC3)CC1)C(C)(C)c1[nH]c3cc(C#N)ccc3c1C2=O ?
Output: high class

Input: Would you kindly repeat that for Nc1nc(Nc2ccc(S(N)(=O)=O)cc2)nn1C(=O)c1c(F)cccc1F ?
Output: high class

Input: Similarly, COCCOc1ccc2c(c1)ncn2-c1ccc2cccc(N3CCC(N)CC3)c2n1 ?
Output: middle class

Input: Now consider O=C1CCC(N2C(=O)c3ccccc3C2=O)C(=O)N1 (stereo unspecified) [Thalidomide] .
Output: high class

Input: # iterate: O=C1NC(=O)/C(=C/c2ccc3nccc(-c4ccncc4)c3c2)S1
Output: middle class

Input: What do we get for COc1cc2c(N3CCN(C(=O)Nc4ccc(OC(C)C)cc4)CC3)ncnc2cc1OCCCN1CCCCC1 [Tandutinib (MLN518)] ?
Output: high class

###

# GI50 of drug values compiled below
System: UO-31
Assay: GI50 of drug in presence of dasatinib; higher = less potent
Conditions: treatment: drug + dasatinib (fixed dose, not stated); 5 days
Write the value in nM as a bare number.

Worked cases, GI50 of drug given:
INSERT INTO results (molecule, recorded_result) VALUES
  ('CO[C@H]1C[C@@H]2CC[C@@H](C)[C@@](O)(O2)C(=O)C(=O)N2CCCC[C@H]2C(=O)O[C@H]([C@H](C)C[C@@H]2CC[C@@H](OCCO)[C@H](OC)C2)CC(=O)[C@H](C)/C=C(\C)[C@@H](O)[C@@H](OC)C(=O)[C@H](C)C[C@H](C)/C=C/C=C/C=C/1C [Everolimus (RAD001)] + Cc1nc(Nc2ncc(C(=O)Nc3c(C)cccc3Cl)s2)cc(N2CCN(CCO)CC2)n1 [dasatinib]', 231),
  ('Cc1c(CN2CCN(C(=O)[C@H](C)O)CC2)sc2c(N3CCOCC3)nc(-c3cnc(N)nc3)nc12 [GDC-0980 (RG7422)] + Cc1nc(Nc2ncc(C(=O)Nc3c(C)cccc3Cl)s2)cc(N2CCN(CCO)CC2)n1 [dasatinib]', 268),
  ('CC(O)C(=O)O.CC(O)C(=O)O.CN1CCN(c2ccc3nc(-c4c(N)c5c(F)cccc5[nH]c4=O)[nH]c3c2)CC1 [Dovitinib Dilactic acid (TKI258 Dilactic acid)] + Cc1nc(Nc2ncc(C(=O)Nc3c(C)cccc3Cl)s2)cc(N2CCN(CCO)CC2)n1 [dasatinib]', 1320),
  ('CNC(=O)c1cc(Oc2ccc(NC(=O)Nc3ccc(Cl)c(C(F)(F)F)c3)cc2)ccn1.Cc1ccc(S(=O)(=O)O)cc1 [Sorafenib (Nexavar)] + Cc1nc(Nc2ncc(C(=O)Nc3c(C)cccc3Cl)s2)cc(N2CCN(CCO)CC2)n1 [dasatinib]', 1530);

Next item in the queue.
Input: Entry under review: CN(C)C/C=C/C(=O)Nc1cc2c(Nc3ccc(F)c(Cl)c3)ncnc2cc1O[C@H]1CCOC1 [Afatinib (BIBW2992)] + Cc1nc(Nc2ncc(C(=O)Nc3c(C)cccc3Cl)s2)cc(N2CCN(CCO)CC2)n1 [dasatinib] . Reported GI50 of drug?
Output: 885
